# Tested on: L1210 leukemia ip in BDF1 mice, survival T/C
# Assay comment: NCI In Vivo Anticancer Drug Screen. Data for tumor model L1210 Leukemia (intraperitoneal) in B6D2F1 (BDF1) mice
# Condition context: endpoint: mean survival time; dose: 100.0 mg/kg/injection; schedule: Q04DX003 (ip); vehicle: saline with Tween-80; higher = longer survival
# Method: The antitumor activity of compounds was measured in mice bearing transplantable tumors. Survival or tumor size were measured and the results are expressed as the measurement made in the treated group (T) divided by the measurement made in the vehicle treated control group (C). The tumor model used in this assay is L1210 Leukemia (intraperitoneal) in B6D2F1 (BDF1) mice
Toxic doses and inconclusive results are not listed.
Reported endpoint: T/C

// worked examples, T/C included
[
  {
    "Compound": "N#CC1=C(N)CCP(c2ccccc2)C1 (stereo unspecified)",
    "T/C": "94 % of control"
  },
  {
    "Compound": "[O-][n+]1ccc(Cl)c2ccsc21",
    "T/C": "103 % of control"
  },
  {
    "Compound": "CCN(CC)C(=O)CS(=O)(=O)c1ccc(C)cc1",
    "T/C": "96 % of control"
  },
  {
    "Compound": "O=[N+]([O-])c1ccc(N=C(Cl)c2ccccc2)cc1",
    "T/C": "98 % of control"
  },
  {
    "Compound": "N#C/C(=C\\c1ccc2c(c1)CCC2)C(N)=O",
    "T/C": "105 % of control"
  }
]

Continue with the compound presented below.
Query block: Please indicate T/C recorded for Cc1ccc(NC(=O)Oc2ccc3ccccc3c2)c([N+](=O)[O-])c1
Result block: 99 % of control

====

# System: L1210 leukemia ip in BDF1 mice, survival T/C
# Assay comment: NCI In Vivo Anticancer Drug Screen. Data for tumor model L1210 Leukemia (intraperitoneal) in B6D2F1 (BDF1) mice
# Condition context: endpoint: mean survival time; dose: 200.0 mg/kg/injection; schedule: Q01DX001 (ip); vehicle: other; higher = longer survival
Toxic doses and inconclusive results are not listed.
Reported endpoint: T/C

// worked examples, T/C included
[
  {
    "Molecule": "C(=C\\c1ccccc1)/C=N/N=C/C=C/c1ccccc1",
    "T/C": "97 % of control"
  },
  {
    "Molecule": "O=C(OC1CCCCC1c1ccccc1)c1cc([N+](=O)[O-])cc([N+](=O)[O-])c1 (stereo unspecified)",
    "T/C": "89 % of control"
  },
  {
    "Molecule": "O=C(N/N=C\\c1ccc([N+](=O)[O-])cc1)c1ccco1",
    "T/C": "93 % of control"
  },
  {
    "Molecule": "CCN(CC)c1ccc(N=C2C=C(C(=O)Nc3ccccc3)C(=O)c3ccccc32)cc1",
    "T/C": "89 % of control"
  }
]

Query block: Please indicate T/C recorded for CC1C(Cl)(Cl)C1(C)/C=C/C1C(C)(C)C1(Cl)Cl (stereo unspecified)
Result block: 117 % of control

Query block: Please indicate T/C recorded for CC(=O)c1cccc(NC(=O)c2ccc(C(=O)Nc3cccc(C(C)=O)c3)cc2)c1
Result block: 102 % of control

====

# Test system: L1210 leukemia ip in BDF1 mice, survival T/C
# Assay comment: NCI In Vivo Anticancer Drug Screen. Data for tumor model L1210 Leukemia (intraperitoneal) in B6D2F1 (BDF1) mice
# Condition context: endpoint: mean survival time; dose: 100.0 mg/kg/injection; schedule: Q04DX003 (ip); vehicle: Klucel (hydroxypropylcellulose) (HPC); higher = longer survival
Toxic doses and inconclusive results are not listed.
Each record here notes measured T/C.

[
  {
    "Compound": "COC1=CC(C)(C)c2ccccc2C1=O",
    "Reported endpoint": "T/C",
    "Value observed": "97 % of control"
  },
  {
    "Compound": "COC(=O)c1ccc(C)c(-n2c(-c3ccccc3)nnc2-c2ccccc2)c1",
    "Reported endpoint": "T/C",
    "Value observed": "95 % of control"
  },
  {
    "Compound": "CCCCNC(=O)Nc1ccccc1",
    "Reported endpoint": "T/C",
    "Value observed": "100 % of control"
  }
]

Query block: Give T/C for COc1ccc2c(c1)CC(OC)c1cc3c(nc1-2)-c1ccccc1CC3 (stereo unspecified) tested on L1210 leukemia ip in BDF1 mice, survival T/C.
Result block: 102 % of control

Query block: Give T/C for Cc1cc(N(CCCCl)CCCCl)ccc1C=Nc1cccc(Cl)c1 tested on L1210 leukemia ip in BDF1 mice, survival T/C.
Result block: 101 % of control

Query block: Give T/C for CCOc1ncc([N+](=O)[O-])cn1 tested on L1210 leukemia ip in BDF1 mice, survival T/C.
Result block: 101 % of control

====

# Test system: L1210 leukemia ip in BDF1 mice, survival T/C
# Assay comment: NCI In Vivo Anticancer Drug Screen. Data for tumor model L1210 Leukemia (intraperitoneal) in B6D2F1 (BDF1) mice
# Condition context: endpoint: mean survival time; dose: 200.0 mg/kg/injection; schedule: Q01DX009 (ip); vehicle: saline with Tween-80; higher = longer survival
Inconclusive results and toxic doses are left out.
Reported endpoint: T/C

// worked examples, T/C included
[
  {
    "Molecule": "CCOC(=O)CCC[P+](c1ccccc1)(c1ccccc1)c1ccccc1",
    "T/C": "113 % of control"
  },
  {
    "Molecule": "COc1cccc(C2CCCCC2O)c1 (stereo not drawn)",
    "T/C": "96 % of control"
  },
  {
    "Molecule": "CCCNC(=O)Nc1cc(Cl)ccc1OC",
    "T/C": "94 % of control"
  },
  {
    "Molecule": "COc1cc2c(cc1OC)C1CC(=O)C(CC(C)C)CN1CC2 (stereo not drawn)",
    "T/C": "90 % of control"
  }
]

Query block: Please indicate T/C recorded for Cc1cc(C)c(C(=O)O)cc1C(=O)O
Result block: 106 % of control

Query block: Please indicate T/C recorded for COc1ccc(Cl)cc1NC(=O)Oc1ccc(C(C)=O)cc1
Result block: 96 % of control

Query block: Please indicate T/C recorded for CC1(C)C2CCC1(C(=O)O)C(=O)C2 (stereo not drawn)
Result block: 95 % of control

====

Each record here notes measured T/C.
# Test system: L1210 leukemia ip in BDF1 mice, survival T/C
# Assay comment: NCI In Vivo Anticancer Drug Screen. Data for tumor model L1210 Leukemia (intraperitoneal) in B6D2F1 (BDF1) mice
# Condition context: endpoint: mean survival time; dose: 12.5 mg/kg/injection; schedule: Q01DX009 (ip); vehicle: saline with Tween-80; higher = longer survival
Inconclusive results and toxic doses are left out.

// worked examples, T/C included
[
  {
    "Molecule": "NC(=O)Cn1cnc2c(=S)nc[nH]c21",
    "Reported endpoint": "T/C",
    "Value observed": "104 % of control"
  },
  {
    "Molecule": "CC(=N)c1ccc(C)cc1",
    "Reported endpoint": "T/C",
    "Value observed": "96 % of control"
  },
  {
    "Molecule": "Cc1cccc(Cl)c1NC1=NCCO1",
    "Reported endpoint": "T/C",
    "Value observed": "102 % of control"
  }
]

Continue with the molecule presented below.
Query block: Please indicate T/C recorded for O=C(Nc1ccccc1)OCC(CN1CCCCC1)OC(=O)Nc1ccccc1 (centres undefined)
Result block: 97 % of control

====

# System: L1210 leukemia ip in BDF1 mice, survival T/C
# Assay comment: NCI In Vivo Anticancer Drug Screen. Data for tumor model L1210 Leukemia (intraperitoneal) in B6D2F1 (BDF1) mice
# Condition context: endpoint: mean survival time; dose: 100.0 mg/kg/injection; schedule: Q04DX003 (ip); vehicle: Klucel (hydroxypropylcellulose) (HPC); higher = longer survival
Inconclusive results and toxic doses are left out.
Reported endpoint: T/C

Query block: Please indicate T/C recorded for O=C(O)CCC(=O)Nc1ccc(S(=O)(=O)Nc2nccs2)cc1
Result block: 101 % of control

Query block: Please indicate T/C recorded for O=S(=O)(O)c1ccc(-c2nc3ccccc3[nH]2)cc1
Result block: 95 % of control

Query block: Please indicate T/C recorded for COc1cc(C(=O)O)ccc1OCCNS(C)(=O)=O
Result block: 105 % of control

Query block: Please indicate T/C recorded for COc1ccc2c(c1)CCC2=O
Result block: 91 % of control

Query block: Please indicate T/C recorded for COc1ccc(COC(=O)Oc2ccc(OC)cc2)cc1
Result block: 102 % of control

Query block: Please indicate T/C recorded for Brc1ccc(N=Nc2ccccc2)cc1
Result block: 103 % of control

Query block: Please indicate T/C recorded for Cc1ccc2ccccc2c1CC(=O)NN
Result block: 102 % of control

Query block: Please indicate T/C recorded for CC(C)(c1ccccc1)C(C)(C)c1ccccc1
Result block: 92 % of control

From: PubChem BioAssay AID248
